# STUDY_TARGET: m5-HT2A (Mus musculus, UniProt P35363)
# Sequence (P35363 whole entry): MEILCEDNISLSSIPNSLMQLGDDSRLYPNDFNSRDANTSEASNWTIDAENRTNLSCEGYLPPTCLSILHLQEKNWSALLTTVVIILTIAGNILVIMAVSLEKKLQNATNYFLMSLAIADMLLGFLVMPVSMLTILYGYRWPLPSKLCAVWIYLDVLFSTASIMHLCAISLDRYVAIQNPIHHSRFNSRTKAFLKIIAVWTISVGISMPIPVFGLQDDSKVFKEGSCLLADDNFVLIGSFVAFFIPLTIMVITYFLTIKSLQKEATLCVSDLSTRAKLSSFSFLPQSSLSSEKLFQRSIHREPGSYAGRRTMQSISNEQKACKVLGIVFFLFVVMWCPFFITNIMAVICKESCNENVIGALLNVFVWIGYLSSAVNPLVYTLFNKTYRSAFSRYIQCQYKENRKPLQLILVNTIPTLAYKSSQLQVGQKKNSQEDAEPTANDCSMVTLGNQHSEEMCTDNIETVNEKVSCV
QUANTITY_NAME: Ki

> print(dat)
                                   compound  quantity.name         result
1  COc1cc(CC(C)N)c(OC)cc1I (stereo not shown)             Ki  0.3 to 7.9 nM

----------
pEC50 overview
# STUDY_TARGET: 5-HT2C (Homo sapiens, UniProt P28335)
# Sequence (P28335 33-458): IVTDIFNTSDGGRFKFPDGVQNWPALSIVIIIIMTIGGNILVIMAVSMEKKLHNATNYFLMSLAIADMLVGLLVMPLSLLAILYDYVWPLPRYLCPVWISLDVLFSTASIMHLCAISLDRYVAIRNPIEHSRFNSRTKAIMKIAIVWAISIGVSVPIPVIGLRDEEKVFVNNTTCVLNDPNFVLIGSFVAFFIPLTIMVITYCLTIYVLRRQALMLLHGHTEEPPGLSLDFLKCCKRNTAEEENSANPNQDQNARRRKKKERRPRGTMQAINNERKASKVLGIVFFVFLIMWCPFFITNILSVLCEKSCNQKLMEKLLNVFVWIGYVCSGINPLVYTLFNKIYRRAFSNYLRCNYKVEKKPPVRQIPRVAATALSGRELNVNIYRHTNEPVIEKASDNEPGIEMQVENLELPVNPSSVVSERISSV
# ASSAY_EXPLANATION: Gαq calcium mobilization assay, 5-HT2C
pEC50: −log10 of the molar value.
QUANTITY_NAME: pEC50

> print(dat)
              sample.smiles  number
1  CNCCc1c[nH]c2ccc(OC)cc12    7.89
2   COc1ccc2[nH]cc(CCN)c2c1    8.82
